# experimental-details: Fluorescence lifetimes of selected lanthanide (Tb, Eu, Dy, Sm) complexes
# Format: physicochemical
# measurement-parameters: Eu complexes, Table 2
measured-metric: Life Time

Please review the entries below; each comes with its answer.
INSERT INTO results (smi, data_value) VALUES
  ('O=C(O)CCCCCN1CCN2CCNC(=O)c3cccc(c3O)C(=O)NCCN(CCNC(=O)c3cccc(c3O)C1=O)CCN1CCNC(=O)c3cccc(c3O)C(=O)NCCN(CCNC(=O)c3cccc(c3O)C(=O)NCC1)CC2', '598 µs'),
  ('O=C(O)CCCCCN1CCN2CCNC(=O)c3cccc(c3O)C(=O)NCCN(CCNC(=O)c3cccc(c3)C1=O)CCN1CCNC(=O)c3cccc(c3O)C(=O)NCCN(CCNC(=O)c3cccc(c3O)C(=O)NCC1)CC2', '657 µs');

Count: 3. Required value per item: Life Time.
1. O=C1NCCN2CCNC(=O)c3cccc(c3O)C(=O)NCCN(CCNC(=O)c3cccc1c3O)CC(=O)N1CCNC(=O)c3cccc(c3O)C(=O)NCCN(CCNC(=O)c3cccc(c3O)C(=O)NCC1)CC2
2. O=C1NCCN2CCNC(=O)c3cccc(c3O)C(=O)NCCN(CCNC(=O)c3cccc1c3O)C(=O)N1CCNC(=O)c3cccc(c3O)C(=O)NCCN(CCNC(=O)c3cccc(c3O)C(=O)NCC1)CC2
3. O=C(O)CCCCCN1CCN2CCNC(=O)c3cccc(c3O)C(=O)NCCN(CCNC(=O)c3cccc(n3)C1=O)CCN1CCNC(=O)c3cccc(c3O)C(=O)NCCN(CCNC(=O)c3cccc(c3O)C(=O)NCC1)CC2

Response:
["609 µs", "505 ms", "651 µs"]

====

# experimental-details: Fluorescence lifetimes of selected lanthanide (Tb, Eu, Dy, Sm) complexes
# Assay type: physicochemical
# measurement-parameters: Table 1
Exercise: state measured Life Time for each of the molecules provided.

INSERT INTO results (smi, measured_metric, data_value) VALUES
  ('O=C(CN1CCN2CCNC(=O)c3cccc(c3O)C(=O)NCCN(CCNC(=O)c3cccc(c3O)C1=O)CCN1CCNC(=O)c3cccc(c3O)C(=O)NCCN(CCNC(=O)c3cccc(c3O)C(=O)NCC1)CC2)NCCOCCOCCCCCCCl', 'Life Time', '2.23 ms'),
  ('Nc1nc(CCc2ccc(CNC(=O)CN3CCN4CCNC(=O)c5cccc(c5O)C(=O)NCCN(CCNC(=O)c5cccc(c5O)C3=O)CCN3CCNC(=O)c5cccc(c5O)C(=O)NCCN(CCNC(=O)c5cccc(c5O)C(=O)NCC3)CC4)cc2)c2[nH]cnc2n1', 'Life Time', '1.99 ms');

Prompt: Tell me its Life Time given O=C1NCCN2CCNC(=O)c3cccc(c3O)C(=O)NCCN(CCNC(=O)c3cccc1c3O)CC(=O)N1CCNC(=O)c3cccc(c3O)C(=O)NCCN(CCNC(=O)c3cccc(c3O)C(=O)NCC1)CC2 as the entry.
Response: 1.53 ms
